Method: chemical genetic growth profiling, strain panel (AID 1159580);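 note: tested at 20 µM; growth read once vehicle control cultures reached saturation at 30 °C; 1 = growth at the plate median or of vehicle wells; lower values mean less growth of the strain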
Test Parameters: S. cerevisiae deletion strains, growth OD, locus YCL061C, strain MRC1, hits give low values
Screen size: about 5,500 compounds; about 2,000 (36%) were called active. Another 18% or so got no clear call; they are omitted. Some of the results follow.
Label Yes when normalized growth is strictly below 1; at or above that, label No.

Look over these answered cases.
CSc1cccc(NC(=S)N=CN(C)C)c1 | Yes
C[C@@H]1CC[C@@]2(NC1)O[C@H]1C[C@H]3C4CC=C5C[C@@H](O)CC[C@]5(C)C4CC[C@]3(C)C1[C@@H]2C (some centres not stated) | Yes
CC1CC[C@]2(NC1)O[C@H]1CC3C4CC[C@H]5C[C@@H](O)CC[C@]5(C)C4CC[C@]3(C)[C@H]1[C@@H]2C (some centres not stated) | Yes

Request: Does CN[C@@H]1C(O)[C@@H](O[C@@H]2[C@@H](O)[C@H](O[C@H]3OC(CN)=CC[C@H]3N)[C@@H](N)C[C@H]2N)OC[C@]1(C)O (some centres not stated) have normalized growth strictly under 1?
Result: No

Request: Lab log: compare recorded normalized growth with 1; is it strictly lower for OC1(C(F)(F)F)CC(c2ccc3ccccc3c2)=NN1 (configuration not stated) ?
Result: Yes

----------
Method: chemical genetic growth profiling, strain panel (AID 1159580);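 note: tested at 20 µM; growth read once vehicle control cultures reached saturation at 30 °C; 1 = growth at the plate median or of vehicle wells; lower values mean less growth of the strain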
Test Parameters: S. cerevisiae deletion strains, growth OD, locus YLR039C, strain RIC1, hits give low values
The whole screen tested about 5,500 compounds, of which about 2,000 (36%) were called active. Another 18% or so got no clear call; they are omitted. This is one part of the list.
Can you tell me normalized growth for the items I'm about to list?
Numbers only.

Field: example entries. Status: answers known.
CCCCCCCCCCCC1=C(O)C(=O)C=C(O)C1=O | 0.296
CCN(CC)C(=O)c1[nH]c(C)c(C)c1C | 1.02
C[C@@H]1CC[C@@]2(OC1)O[C@H]1CC3C4CC[C@H]5C[C@@H](O)CC[C@]5(C)C4CC[C@]3(C)[C@H]1[C@@H]2C (stereo not given in full) | 1.01
CC(C)(O)[C@@H]1Cc2cc3ccc(=O)oc3cc2O1 | 1.01

Parameter requested: normalized growth. Apply to each item below.
1. O=C1CC(Nc2ccccc2)C=C1Nc1ccccc1 (stereo not given)
2. CC1CC[C@@]2(OC1)O[C@H]1CC3C4CC[C@@H]5C[C@@H](O)CC[C@]5(C)C4CC[C@]3(C)[C@H]1[C@@H]2C (stereo not given in full)

Result:
[0.977, 1.09]

Hey, quick one: what's normalized growth for each of these?
1. C=C(C)[C@H]1COc2cc3oc(=O)ccc3cc2O1
2. O=C1C=C2C(=CCOC2O)O1 (stereo not given)
3. C[C@@H]([C@H](O)c1ccccc1)N(C)C
4. CC1CCC2(OC1)OC1CC3C4CC[C@H]5C[C@@H](O)CC[C@]5(C)C4CC(=O)[C@]3(C)C1C2C (stereo not given in full)

Result:
0.12
0.292
1.03
0.972

----------
Method: chemical genetic growth profiling, strain panel (AID 1159580);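 note: tested at 20 µM; growth read once vehicle control cultures reached saturation at 30 °C; 1 = growth at the plate median or of vehicle wells; lower values mean less growth of the strain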
Test Parameters: S. cerevisiae deletion strains, growth OD, locus YKR001C, strain vps1, hits give low values
Screen size: about 5,500 compounds; about 2,000 (36%) were called active. Inconclusive results (about 18%) are left out. Some of the results follow.
One threshold, 1, splits the recorded normalized growth values: lower ones are fulfilled, equal or higher ones are not fulfilled.

COc1ccc(-c2cc(=O)c3c(O)cc(O[C@H]4O[C@H](CO[C@@H]5O[C@@H](C)[C@H](O)[C@@H](O)[C@H]5O)[C@@H](O)[C@H](O)[C@H]4O)cc3o2)cc1 | not fulfilled

With those in mind, consider the next molecule.
Request: Say whether its normalized growth is strictly beneath 1. Entry: COC(=O)[C@@]1(C)CCC[C@]2(C)c3ccc(O)c(C(C)C)c3CCC12 (stereo partly drawn)
Result: fulfilled
